# System Under Test: Solute carrier family 2, facilitated glucose transporter member 1 (Homo sapiens)
# Measurement Notes: ST_JUDE_LEISH: Cytotoxicity at 2uM final concentration against transgenic Leishmania Mexicana promastigotes LmGLUT1 that are glucose transport deficient and complemented with the human glucose transporter GLUT1. Activity is measured by DNA content using SYBR green in vitro
# Format: functional
Readout Type: inhibition
Units required after the number.

                                   compound  readout_type  result
0  Cc1nc(NCCCn2ccnc2)cc(-c2cncc(-c3ccc(OC(F)(F)F)cc3)c2)n1    inhibition   5.43%
1  CCCCN(CCCC)CCNC(=O)c1ccc(-c2nc3cc(Cl)ccc3[nH]2)c(OCC)c1    inhibition   4.49%
2  Fc1ccc(-c2cc(NCCCn3ccnc3)nc(-c3cccnc3)n2)cc1    inhibition   1.99%
3       C#CCOc1ccc(N2C(N)=NC(N)=NC2(C)C)cc1    inhibition   2.23%
4  O=C(CCN(Cc1ccco1)c1nc(-c2ccc(F)cc2)nc2ccccc12)NC1CC1    inhibition   4.96%
5  Cc1cccc(-c2ccc(CNC3CCN(CC4Cn5c(=O)ccc6ccc(F)c4c65)CC3)cn2)c1 (centres undefined)    inhibition   6.75%

Below is a list of compounds. For each, state its recorded inhibition.
1. O=C(Nc1ccc(Cl)cc1)c1cc(Cl)ccc1NC(=O)C1CCc2ccccc2O1 (centres undefined)
2. Cc1cc(OCC2CCCO2)c2cc(NC(=O)C(=O)Nc3ccc4nc(C)cc(OCC5CCCO5)c4c3)ccc2n1 (centres undefined)
3. CCCNC(=O)C1CCN(C(c2ccc(Cl)cc2)c2ccc(Cl)cc2)CC1

Ans.
["5.48%", "3.87%", "-0.62%"]
